// provenance: patent US20030138374A1

Please respond with reported Distribution coefficient for every item in the list.
- PROTOCOL DESCRIPTION: Distribution coefficient between water/1-octanol
- Type: physicochemical
- STUDY CONDITIONS: 1-octanol / phosphate buffer (pH 7.3) or ultra-pure water
Numbers only.

Use these answered entries as a reference point.
1) CN(C)c1ccc(/N=N/c2ccc(S(=O)(=O)O)cc2)cc1    1
2) O=C(O)c1cc(/C=C/c2ccc(/C=C/c3ccc(O)c(C(=O)O)c3)cc2)ccc1O [Compound X34, reference compound]    3.4
3) CN(C)c1ccc(/C=C/c2ccc3ccccc3[n+]2C)cc1    10

State recorded Distribution coefficient for all listed molecules.
1. O.O.O.O.O.O=C([O-])c1cc(N=Nc2ccc(-c3ccc(N=Nc4ccc(O)c(C(=O)[O-])c4)cc3)cc2)ccc1O.[Na+].[Na+] [Chrysamine G 2Na.5H2O, reference compound]
2. O=C([O-])c1cc(/C=C/c2ccc(/C=C/c3ccc(O)c(C(=O)[O-])c3)cc2)ccc1O.[Na+].[Na+] [Compound X34.2Na, reference compound]
3. CN(C)c1ccc(/C=C/c2cccc(/C=C/c3ccc(N(C)C)cc3)[n+]2C)cc1.[I-]

[2.7, 2.7, 35]

State recorded Distribution coefficient for all listed molecules.
1. CCN(CC)c1ccc(/C=C/c2cccc(/C=C/c3ccc(N(CC)CC)cc3)[n+]2C)cc1
2. CC[n+]1c(/C=C/c2ccc(N(C)C)cc2)ccc2ccccc21
3. CCN(CC)c1ccc(/N=C/c2ccc(N(CC)CC)cc2O)cc1

[87, 18, 30]
